B1: Ankyrin repeat and SOCS box protein 14, residues 532 to 572; numbered along this chain, A6NK59 (parent)
chain: RSLKHLCRLKIRKCMGRLHLRCPVFMSFLPLPNRLKAYVLY

Variants of: B1
Experiment: abundance fitness (aPCA) (normalised: wild type 0, dead -1); higher = more abundant; growth selection in yeast, the domain comes from the species named
Details: Homo sapiens
METRIC_NAME: abundance fitness
# answer = number (no unit)

>  <PRIMARY_SEQUENCE>
RSLKHLCRLKIRKCMGRLHLRCPVFMSFLPLPNRLKAYLLY [V39L]

>  <abundance fitness>
-0.098

$$$$
>  <PRIMARY_SEQUENCE>
RSLKHLCRLKIRKCMGWLHLRCPVFMSFLPLPNRLKAYVLY [R17W]

>  <abundance fitness>
0.722

$$$$
>  <PRIMARY_SEQUENCE>
RSLKHLCRLKIRKCMGRLHLRCPVFCSFLPLPNRLKAYVLY [M26C]

>  <abundance fitness>
-0.013

$$$$
>  <PRIMARY_SEQUENCE>
RSLKHLCRLKIRKCMGRLHLRCPVFMSFVPLPNRLKAYVLY [L29V]

>  <abundance fitness>
-0.353

$$$$

query: Given the variant RSLKHLCRLKIRKCMGRLHLRCPDFMSFLPLPNRLKAYVLY [V24D] , what is its reported abundance fitness?
result: 0.472

query: Given the variant RSLKHLCRLKIRKCMGRLHLRCPVFMSFLPLPNRLIAYVLY [K36I] , what is its reported abundance fitness?
result: -0.274

query: Given the variant RSLKHLCRLKIRKCMGRLHLRRPVFMSFLPLPNRLKAYVLY [C22R] , what is its reported abundance fitness?
result: -0.282

Numbers sourced from the Human Domainome abundance scans (Beltran et al. 2025).
